- Tested on: human umbilical vein endothelial cells (HUVEC)
- ASSAY: Anti-cell proliferation in normal cells in the absence of PDGF stimulation (BrdU incorporation)
- Type: cell-based
- CONDITION: read-out: IC50 on cell proliferation, HUVEC (LSGS)
TEST_READOUT: pIC50
Value format note: pIC50 is -log10 of concentration (mol/L); just state the number.

q: Entry COc1cc2c(cc1OC)-c1n[nH]c(Nc3cccc(F)c3)c1C2 [Compound 14] : reported pIC50 = ?
a: 5.31

---

- TARGET_UNDER_TEST: PDGF-receptor beta enzyme comprising the tyrosine kinase domain (Homo sapiens)
- Construct: from amino acid 545 to 1106 of GenBank Access NO: AAA36427
- Sequence (P09619 545-1106): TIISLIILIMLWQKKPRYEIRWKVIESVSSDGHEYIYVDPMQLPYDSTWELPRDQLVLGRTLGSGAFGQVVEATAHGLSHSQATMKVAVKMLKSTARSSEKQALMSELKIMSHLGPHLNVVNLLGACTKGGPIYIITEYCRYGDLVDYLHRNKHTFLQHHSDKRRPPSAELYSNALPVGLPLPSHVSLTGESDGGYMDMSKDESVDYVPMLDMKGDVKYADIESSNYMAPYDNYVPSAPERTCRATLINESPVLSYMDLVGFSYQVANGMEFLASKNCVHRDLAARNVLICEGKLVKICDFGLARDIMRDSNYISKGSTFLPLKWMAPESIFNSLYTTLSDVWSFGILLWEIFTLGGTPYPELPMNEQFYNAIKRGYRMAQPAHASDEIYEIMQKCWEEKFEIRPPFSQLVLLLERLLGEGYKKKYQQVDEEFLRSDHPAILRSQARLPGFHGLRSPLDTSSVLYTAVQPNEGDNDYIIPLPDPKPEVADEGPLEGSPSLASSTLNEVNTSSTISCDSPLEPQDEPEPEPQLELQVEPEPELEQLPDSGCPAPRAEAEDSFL
- ASSAY: Inhibition of PDGF-receptor kinase activity (cell-free, PLC1 peptide, 33P Flashplate)
- Format: biochemical
- CONDITION: read-out: IC50 (μM) on PDGF-R kinase activity
- Protocol: PDGF-R kinase activity was assayed by its ability to phosphorylate one of its target proteins, PLCγ, in a cell-free system, in particular, a PLC1 peptide comprising the tyrosine residue where the phosphorylation occurs was used for the assay. […] In order to test the potency of inhibition of present compounds, an IC50 for an individual compound was measured using the above procedure. […]
IC50 values for the compounds below.
Report only the number, with the unit µM understood.

q: Entry CNC(=O)n1nc(Nc2cccc(F)c2)c2c1-c1cc(OC)c(OC)cc1C2 [Compound 578] : reported IC50 = ?
a: 4.02

q: Also CCC1c2cc(OC)c(OC)cc2-c2n[nH]c(Nc3cccc(Br)c3)c21 (single isomer, unassigned) [Compound 570] ?
a: 2.05

q: Also CNC(=S)n1nc2c(c1Nc1cccc(F)c1)Cc1cc(OC)c(OC)cc1-2 [Compound 580] ?
a: 0.126

q: Also CCC1c2cc(OC)c(OC)cc2-c2n[nH]c(NCc3c(Cl)cccc3Cl)c21 (single isomer, unassigned) [Compound 585] ?
a: 0.429

q: Also COc1cc2c(cc1OC)-c1n[nH]c(Nc3cccc(C(=O)NCCOCCOCCOCCNC(=O)CCCCC4SCC5NC(=O)NC54)c3)c1C2 (stereo not shown) [Compound 601] ?
a: 2.29

q: Also COc1cc2c(cc1OC)-c1c(c(Nc3cccc(F)c3)nn1C)C2 [Compound 609] ?
a: 4.68

***
q: Entry COc1cc2c(cc1OC)-c1n[nH]c(Nc3cc(C)cc(C)n3)c1C2 [Compound 588] : reported IC50 = ?
a: 0.556
